Taken from patent US20060241051A1.

# subject.of.test: T1, human OT7T175 (metastin receptor) (human, UniProt Q969F8 1-398)
# T1 construct: expressed on CHO cells (hOT7T175-expressed CHO cells; hOT7T175/CHO); also called hOT7T175; h0T7T175
# assay.remarks: FMAT competition with Cy-5-labeled metastin (40-54), hOT7T175-expressed CHO cells
pIC50: −log10 of the molar value. Square brackets hold non-standard residues; d marks the D form. Ends that are not written are not given here. Phe(3-Cl) = N[C@@H](Cc1cccc(Cl)c1)C(=O)O; Phe(2-Cl) = N[C@@H](Cc1ccccc1Cl)C(=O)O; Arg(Me) = CNC(=N)NCCC[C@H](N)C(=O)O; d3Pal = N[C@H](Cc1cccnc1)C(=O)O; azaGly = NNC(=O)O
Response key: yes (1) means pIC50 >= 7; no (0) means pIC50 < 7.

Solved cases below.
[d3Pal]WNSF[azaGly]L[Arg(Me)]F-NH2 (N-terminus assumed; SMILES CNC(=N)NCCC[C@H](NC(=O)[C@H](CC(C)C)NC(=O)NNC(=O)[C@H](Cc1ccccc1)NC(=O)[C@H](CO)NC(=O)[C@H](CC(N)=O)NC(=O)[C@H](Cc1c[nH]c2ccccc12)NC(=O)[C@H](N)Cc1cccnc1)C(=O)N[C@@H](Cc1ccccc1)C(N)=O, also called [D-Pya(3)2,AzaGly7,Arg(Me)9]MS10-(2-10)) [Compound No. 289: des(1)-[D-Pya(3) 2,AzaGly7,Arg(Me)9]MS10] | yes (1)
[dY][dH]WNSF[azaGly]L[Arg(Me)]F-NH2 [Compound No. 288: [D-Tyr1,D-His2,AzaGly7,Arg(Me)9]MS10] | yes (1)

Input: For this binder, is measured pIC50 7 or higher? [dY]N[Phe(2-Cl)]NSF[azaGly]L[Arg(Me)]F-NH2 [Compound No. 247: [D-Tyr1,Phe(2CL) 3,AzaGly7,Arg(Me)9]MS10]
Output: yes (1)

Input: For this binder, is measured pIC50 7 or higher? [dY]TNSFGL[Arg(Me)]F-NH2 [Compound No. 227: des(1)-[D-Tyr2,Thr3,Arg(Me)9]MS10]
Output: yes (1)

Input: For this binder, is measured pIC50 7 or higher? [dY]N[Phe(3-Cl)]NSF[azaGly]L[Arg(Me)]F-NH2 (N-terminus assumed; SMILES CNC(=N)NCCC[C@H](NC(=O)[C@H](CC(C)C)NC(=O)NNC(=O)[C@H](Cc1ccccc1)NC(=O)[C@H](CO)NC(=O)[C@H](CC(N)=O)NC(=O)[C@H](Cc1cccc(Cl)c1)NC(=O)[C@H](CC(N)=O)NC(=O)[C@H](N)Cc1ccc(O)cc1)C(=O)N[C@@H](Cc1ccccc1)C(N)=O) [Compound No. 248: [D-Tyr1,Phe(3Cl) 3,AzaGly7,Arg(Me)9]MS10]
Output: yes (1)
